system: Malme-3M; experiment: NCI tumour cell line growth inhibition, 48 h
Activity calls are given as the source filed them. Cut-off read from the data, not from the text of the source: active = GI50 up to about 1.1 µM and inactive = higher.
measurement.name: GI50

Solved cases below.
compound	GI50
O=C(Cc1cccs1)N[C@@H]1C(=O)N2C(C(=O)OC(c3ccccc3)c3ccccc3)=C(CO)CS[C@H]12	40.7 µM (inactive)
C[C@]12CC(c3ccccc3O1)C(C#N)C(=O)N2 (stereo not given in full)	> 100 µM (inactive)
NNC(=O)CC(=O)Nc1ccc(Cl)cc1	> 100 µM (inactive)

Consider the compound C/C=C1\CN2CCc3c([nH]c4ccccc34)C2CC1C(=O)OC (stereo not given) and give its measured GI50.
> 322 µM (inactive)

Consider the compound CC1=NN(C(=O)c2ccc(Cl)cc2)C(=O)/C1=C/c1cccc(O)c1 and give its measured GI50.
> 100 µM (inactive)

Consider the compound Cc1sc2[nH]c(=O)oc(=O)c2c1C and give its measured GI50.
> 72.1 µM (inactive)

Consider the compound O=Cc1c[nH]c2c(=O)[nH]cnc12 and give its measured GI50.
> 100 µM (inactive)
